target: EGFR (human) (UniProt P00533)
Sequence (P00533 whole entry, looked up): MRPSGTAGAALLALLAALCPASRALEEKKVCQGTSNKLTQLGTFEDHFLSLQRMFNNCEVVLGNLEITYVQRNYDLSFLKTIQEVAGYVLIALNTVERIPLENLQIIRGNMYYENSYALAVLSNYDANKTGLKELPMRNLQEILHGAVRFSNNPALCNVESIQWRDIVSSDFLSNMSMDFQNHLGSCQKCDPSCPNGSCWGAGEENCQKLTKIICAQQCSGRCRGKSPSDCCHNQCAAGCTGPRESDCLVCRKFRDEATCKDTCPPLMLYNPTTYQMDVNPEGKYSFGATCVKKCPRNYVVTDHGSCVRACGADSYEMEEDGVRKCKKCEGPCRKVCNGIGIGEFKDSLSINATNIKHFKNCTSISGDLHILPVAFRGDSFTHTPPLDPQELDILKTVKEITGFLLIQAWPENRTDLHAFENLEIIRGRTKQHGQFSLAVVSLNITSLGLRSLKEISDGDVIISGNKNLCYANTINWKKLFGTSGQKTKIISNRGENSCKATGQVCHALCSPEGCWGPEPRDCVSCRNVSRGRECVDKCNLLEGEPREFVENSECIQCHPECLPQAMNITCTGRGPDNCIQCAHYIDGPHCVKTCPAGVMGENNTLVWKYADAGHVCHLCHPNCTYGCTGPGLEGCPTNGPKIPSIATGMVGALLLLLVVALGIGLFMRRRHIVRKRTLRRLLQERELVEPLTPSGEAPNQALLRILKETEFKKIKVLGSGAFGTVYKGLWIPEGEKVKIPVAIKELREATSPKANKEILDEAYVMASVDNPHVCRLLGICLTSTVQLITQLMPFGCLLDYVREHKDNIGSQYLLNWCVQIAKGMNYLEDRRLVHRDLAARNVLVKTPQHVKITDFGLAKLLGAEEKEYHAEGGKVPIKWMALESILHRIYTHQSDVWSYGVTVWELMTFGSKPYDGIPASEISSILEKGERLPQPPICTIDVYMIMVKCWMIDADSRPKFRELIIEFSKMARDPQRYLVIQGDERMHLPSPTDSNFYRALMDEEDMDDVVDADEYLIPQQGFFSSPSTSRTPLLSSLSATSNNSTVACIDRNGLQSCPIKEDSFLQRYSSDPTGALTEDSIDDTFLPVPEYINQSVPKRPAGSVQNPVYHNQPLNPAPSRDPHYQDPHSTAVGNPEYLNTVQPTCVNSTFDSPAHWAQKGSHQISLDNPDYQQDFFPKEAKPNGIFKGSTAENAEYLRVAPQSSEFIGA
test readout: IC50 (nM)
State the answer as a number, implicitly in nM.

Entry `COc1cc2ncnc(Nc3ccc(Br)cc3)c2cc1OC` ; IC50 = 0.977

Recorded result, `Nc1cc2ncnc(Nc3cccc([N+](=O)[O-])c3)c2cn1` , IC50: 40.7
